Reported IC50 against Prothrombin (Homo sapiens), gathered from multiple publications, appears below.

Query for Prothrombin (Homo sapiens): what IC50 does the record show for `CC(=N)N1CCC(Oc2ccc(OCc3nc4cc(C(=N)N)ccc4n3CC(=O)NCC3CCCCC3)cc2)CC1` ?
> 10 µM

Hi! What's the reported IC50 for `Cc1nn(-c2ccccc2)c(C)c1NC(=O)COC(=O)Cn1c(C)csc1=O` on Prothrombin (Homo sapiens)?
> 200 µM

Find the measured IC50: item CC(=N)N1CCC(Oc2ccc(N(Cc3nc4cc(C(=N)N)ccc4n3CC(=O)NC3CCCCC3)C(=O)c3ccc(C(=O)O)cc3)cc2)C1 (centres undefined) , target or system Prothrombin (Homo sapiens).
> 10 µM

What IC50 appears in the records for this compound with Prothrombin (Homo sapiens)? `N=C(N)NCc1ccc(C(=O)Nc2ccc(Cl)cc2C(=O)Nc2ccc(Cl)cn2)cc1`
> 11 µM

// fetch Prothrombin (Homo sapiens) IC50 for `NCc1cccc(C2CCN(C(=O)c3ccc(C#Cc4ccccc4F)o3)CC2)c1.O=C(O)C(F)(F)F`
> 100 µM

// lookup IC50 | system=Prothrombin (Homo sapiens) | key= `NC(=O)C1CCN(Cc2ccc(C(=O)Nc3ccc(Cl)cc3C(=O)Nc3ccc(Cl)cn3)cc2)CC1`
> 11 µM

Write down the reported IC50 of `O=C(Nc1ccc(Cl)cc1C(=O)Nc1ccc(Cl)cn1)c1ccc(CN2CCOCC2)cc1` , test system: Prothrombin (Homo sapiens).
> 11 µM

Request - read-out IC50 | tested on Prothrombin (Homo sapiens) | compound `O=C1NC(=O)c2cc(NC(=O)c3ccc([N+](=O)[O-])cc3)ccc2C1=O`
> 5 µM

Report IC50 for COC(=O)c1ccccc1CS(=O)(=O)N[C@H](CC1CCCN(C(=N)N)C1)C(=O)NCC(=O)N[C@H]1CCCN(C(=N)N)C1O (stereo in doubt; form 2) tested on Prothrombin (Homo sapiens).
> 2.5 µM
